Test system: NCI-H2085 (Non-Small Cell Lung Carcinoma);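 note: after 72 h of two-drug dosing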
METHOD NOTES: Bliss excess, mean over the matrix (fraction); higher = more synergy
PROPERTY: Bliss excess
// response body must contain only the number

Worked examples, 10 molecules total:
[[record]]
molecule = "N#Cc1cnc(Nc2cc(NC[C@H]3CNCCO3)c(C(F)(F)F)cn2)cn1 [SRA737] + Nc1ccn([C@@H]2O[C@H](CO)[C@@H](O)C2(F)F)c(=O)n1 [Gemcitabine] (first compound max 10 µM, 7x7, partner max 0.3 µM)"
property = "Bliss excess"
meas_value = -0.0192

[[record]]
molecule = "C[C@@H]1COCCN1c1cc(C2([S@](C)(=N)=O)CC2)nc(-c2ccnc3[nH]ccc23)n1 [AZD6738] + Nc1ccn([C@@H]2O[C@H](CO)[C@@H](O)C2(F)F)c(=O)n1 [Gemcitabine] (first compound max 10 µM, 7x7, partner max 0.3 µM)"
property = "Bliss excess"
meas_value = 0.07

[[record]]
molecule = "CC1(C)CCC(CN2CCN(c3ccc(C(=O)NS(=O)(=O)c4ccc(NCC5CCOCC5)c([N+](=O)[O-])c4)c(Oc4cnc5[nH]ccc5c4)c3)CC2)=C(c2ccc(Cl)cc2)C1 [Venetoclax] + C[C@@H](Nc1cc(F)cc(F)c1)c1cc(C(=O)N(C)C)cc2c(=O)cc(N3CCOCC3)oc12 [AZD8186] (first compound max 1 µM, 7x7, partner max 3 µM)"
property = "Bliss excess"
meas_value = 0.0025

[[record]]
molecule = "COc1nnc2ccc(N3CCC(c4ccc(OCCN5CCN(C)C(=O)[C@H]5C)cc4)CC3)nn12 [AZD5153] + C=CCn1c(=O)c2cnc(Nc3ccc(N4CCN(C)CC4)cc3)nc2n1-c1cccc(C(C)(C)O)n1 [AZD1775] (first compound max 1 µM, partner max 1 µM)"
property = "Bliss excess"
meas_value = -0.0223

[[record]]
molecule = "C=CCn1c(=O)c2cnc(Nc3ccc(N4CCN(C)CC4)cc3)nc2n1-c1cccc(C(C)(C)O)n1 [AZD1775] + Nc1ccn([C@@H]2O[C@H](CO)[C@@H](O)C2(F)F)c(=O)n1 [Gemcitabine] (first compound max 1 µM, partner max 0.3 µM)"
property = "Bliss excess"
meas_value = 0.032

[[record]]
molecule = "NC1(C(=O)N[C@@H](CCO)c2ccc(Cl)cc2)CCN(c2ncnc3[nH]ccc23)CC1 [Capivasertib] + CC(C)n1c(=O)n(C)c2cnc3cc(F)c(-c4ccc(OCCCN5CCCCC5)nc4)cc3c21 [AZD1390] (first compound max 10 µM, 7x7, partner max 0.3 µM)"
property = "Bliss excess"
meas_value = -0.0564

[[record]]
molecule = "CN(CCO)CC[C@H](CSc1ccccc1)Nc1ccc(S(=O)(=O)NC(=O)c2ccc(N3CCC([C@@H](O)c4ccccc4-c4ccc(Cl)cc4)CC3)cc2)cc1S(=O)(=O)C(F)(F)F [AZD4320] + C1CN(CCC1(C(=O)N[C@@H](CCO)C2=CC=C(C=C2)Cl)N)C3=NC=NC4=C3C=CN4 [Capivasertib] (first compound max 1 µM, 7x7, partner max 3 µM)"
property = "Bliss excess"
meas_value = -0.0401

[[record]]
molecule = "C[C@@H](c1ccc2nccn2c1)n1nnc2ncc(-c3cnn(C)c3)nc21 [Savolitinib] + CC1(C)CCC(CN2CCN(c3ccc(C(=O)NS(=O)(=O)c4ccc(NCC5CCOCC5)c([N+](=O)[O-])c4)c(Oc4cnc5[nH]ccc5c4)c3)CC2)=C(c2ccc(Cl)cc2)C1 [Venetoclax] (first compound max 1 µM, 7x7, partner max 1 µM)"
property = "Bliss excess"
meas_value = -0.0364

[[record]]
molecule = "NC1(C(=O)N[C@@H](CCO)c2ccc(Cl)cc2)CCN(c2ncnc3[nH]ccc23)CC1 [Capivasertib] + C[C@@H]1COCCN1C2=NC(=NC(=C2)C3(CC3)[S@](=N)(=O)C)C4=C5C=CNC5=NC=C4 [AZD6738] (first compound max 10 µM, 7x7, partner max 10 µM)"
property = "Bliss excess"
meas_value = -0.0192

[[record]]
molecule = "CN(C)CCCOc1ccc(-c2ccc3ncc4c(c3c2)n(C2CCOCC2)c(=O)n4C)cn1 [AZD0156] + O=C(c1cc(Cc2n[nH]c(=O)c3ccccc23)ccc1F)N1CCN(C(=O)C2CC2)CC1 [Olaparib] (first compound max 3 µM, partner max 3 µM)"
property = "Bliss excess"
meas_value = 0.0267


Attention now turns to another entry.
Asked: Give recorded Bliss excess. O=C(c1cc(Cc2n[nH]c(=O)c3ccccc23)ccc1F)N1CCN(C(=O)C2CC2)CC1 [Olaparib] + COc1nnc2ccc(N3CCC(c4ccc(OCCN5CCN(C)C(=O)[C@H]5C)cc4)CC3)nn12 [AZD5153] (first compound max 10 µM, 7x7, partner max 1 µM)
Given back: -0.0423
